System: T1, 2b (Tomato aspermy virus (TAV), UniProt Q8UYT3 1-95)
T1 sequence: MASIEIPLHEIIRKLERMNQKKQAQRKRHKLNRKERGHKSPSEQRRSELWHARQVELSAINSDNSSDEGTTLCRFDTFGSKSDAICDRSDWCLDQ
Assay remarks: competition EMSA; KC vs labeled gf698 siRNA, 1.9 nM 2b monomer
Test conditions: protein: recombinant; tags: His-SUMO removed by SUMO protease; chain copies: 2; miRNA duplex with mismatches, 22 nt star strand
Parameter measured: Ki (nM)
API: value field is a number in nM; no unit string.

Using known records, supply Ki for AtmiR403 (dsRNA, 5' phosphate on both strands) RNA 1: UUAGAUUCACGCACAAACUCG RNA 2: UGUUUUGUGCUUGAAUCUAAUU
0.05
